The reported numbers originate from ChEMBL document CHEMBL1201862.

A collection of molecules and their measured GI50
test system: NCI-H23; assay: NCI tumour cell line growth inhibition, 48 h
Activity calls are given as the source filed them. Rule as the data show it: active = GI50 up to about 1.1 µM and inactive = higher.

Reference set, count: 5
Molecule: NC(=O)/C(=N\NC(=O)C[n+]1ccccc1)C1NC(=O)NC1=O (stereo not given)
GI50: > 100 µM (inactive)
--
Molecule: COc1cc2c(cc1OC)C1(c3ccccc3)CN(C2)Cc2cc(OC)c(OC)cc21
GI50: 24.5 µM (inactive)
--
Molecule: C=C(C)C[C@H](Sc1nc2ccccc2s1)[C@H](C)O
GI50: 31 µM (inactive)
--
Molecule: CCCCCCCCCC(=O)CC(=O)c1c(O)cc(O)cc1O
GI50: 17.3 µM (inactive)
--
Molecule: COC(=O)[C@]1(c2cc3ccccc3[nH]2)CC2CN(C(=O)OCc3ccccc3)C1C=C2OC (stereo not given in full)
GI50: 40.7 µM (inactive)

input: Fill blank: measured GI50 of the molecule Cc1ccc(S(=O)(=O)OCC23CCC(C4CC42)C2CC23)cc1 (stereo not given) is ____.
output: 48.8 µM (inactive)

input: Looking for the measured GI50 of Nc1nc(=O)n(CC(O)CO)s1 (stereo not given) , can you help?
output: > 100 µM (inactive)

input: # get_value(readout='GI50', item= CCCCCCCC/C=C1\CCC(CN(C)C)C1=O (stereo not given) )
output: 10.7 µM (inactive)

input: I am curious: what GI50 value has been reported for CCOC(OC(C)=O)[C@@H]1C=C[C@H](C)N(c2ccc([N+](=O)[O-])cc2)O1 (stereo not given in full) ?
output: 2.84 µM (inactive)

input: What value of GI50 has been reported for the following molecule? O=C(CC/C(CC(=O)c1ccc(Br)cc1)=N\O)Nc1ccc(Cl)c(Cl)c1
output: > 100 µM (inactive)

input: Need GI50, item CO[C@]12C[C@@H](CNC(=O)c3cc(Br)c[nH]3)O[C@H]1NC(=O)N2
output: > 100 µM (inactive)

input: Requested field: GI50. Item: CC1C(c2ccccc2)=CCON1c1ccccc1 (stereo not given)
output: > 100 µM (inactive)

input: Entry Cc1ncc([N+](=O)[O-])n1CCN=[N+]=[N-] : reported GI50 = ?
output: > 100 µM (inactive)

input: I'd like to know its GI50. The molecule in question is O=C1c2ccccc2CCC1C(O)(C(F)(F)F)C(F)(F)F (stereo not given)
output: > 100 µM (inactive)

input: Sample CN(CCSCCN(C)C(=O)OC(C)(C)C)C(=O)OC(C)(C)C — what was its GI50?
output: > 100 µM (inactive)

input: Field request: GI50 | item: O=C(c1ccccc1)N1CCC(Nc2cccnc2)O1 (stereo not given)
output: > 100 µM (inactive)

input: What GI50 value was documented for this molecule, N#Cc1ncn(CCO)c1N ?
output: > 100 µM (inactive)

input: Fill in: GI50 of CC1=C(C(=O)CC(=O)C(=O)Nc2cc(C)ccc2C)Sc2ccccc2N1 is ___
output: > 100 µM (inactive)

input: Please give the measured GI50 for this molecule: COc1c(C)c(OC)c2c(c1O)[C@@H]1[C@@H]3Cc4c(OC)c(C)c(OC)c(O)c4[C@H](CNC(=O)c4ccc5ccccc5n4)N3[C@@H](C#N)[C@H](C2)N1C
output: 0.000459 µM (active)

input: Value lookup for GI50; key = C[C@H](CCC(=O)NCCS(=O)(=O)O)[C@H]1CC[C@H]2[C@@H]3[C@H](O)C[C@@H]4C[C@H](O)CC[C@]4(C)[C@H]3CC[C@]12C
output: > 100 µM (inactive)

input: Param item = COc1ccccc1NC(=O)/C(Cc1nc2ccc([N+](=O)[O-])cc2nc1O)=N\NC(=O)C[N+](C)(C)C ; retrieve measured GI50.
output: > 100 µM (inactive)

input: Fill in: GI50 of C[C@@H]1CCC2C(C)(C)C(/C=C\C=O)C3(C)OC213 (stereo not given in full) is ___
output: 35.6 µM (inactive)

input: Would you mind telling me what GI50 value was observed for O=c1[nH]cc(-c2c[nH]c3ccccc23)nc1-c1c[nH]c2ccccc12 ?
output: 14.7 µM (inactive)

input: What does the record list as GI50 for O=C(CCc1n[nH]c(=S)o1)Nc1cc(Cl)c(Cl)cc1Cl ?
output: > 100 µM (inactive)
